target: CDK3/CycE1 (Homo sapiens, UniProt Q00526); settings: CDK3/CycE1
Sequence (Q00526 whole entry): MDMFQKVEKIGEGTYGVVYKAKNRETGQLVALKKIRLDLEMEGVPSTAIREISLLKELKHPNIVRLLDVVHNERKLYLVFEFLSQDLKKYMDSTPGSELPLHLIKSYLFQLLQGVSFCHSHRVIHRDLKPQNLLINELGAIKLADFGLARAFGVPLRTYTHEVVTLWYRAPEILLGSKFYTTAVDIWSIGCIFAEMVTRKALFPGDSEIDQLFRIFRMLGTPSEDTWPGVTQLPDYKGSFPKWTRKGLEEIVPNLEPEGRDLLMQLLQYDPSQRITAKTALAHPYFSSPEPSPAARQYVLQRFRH
Sequence (P24864 whole entry partner): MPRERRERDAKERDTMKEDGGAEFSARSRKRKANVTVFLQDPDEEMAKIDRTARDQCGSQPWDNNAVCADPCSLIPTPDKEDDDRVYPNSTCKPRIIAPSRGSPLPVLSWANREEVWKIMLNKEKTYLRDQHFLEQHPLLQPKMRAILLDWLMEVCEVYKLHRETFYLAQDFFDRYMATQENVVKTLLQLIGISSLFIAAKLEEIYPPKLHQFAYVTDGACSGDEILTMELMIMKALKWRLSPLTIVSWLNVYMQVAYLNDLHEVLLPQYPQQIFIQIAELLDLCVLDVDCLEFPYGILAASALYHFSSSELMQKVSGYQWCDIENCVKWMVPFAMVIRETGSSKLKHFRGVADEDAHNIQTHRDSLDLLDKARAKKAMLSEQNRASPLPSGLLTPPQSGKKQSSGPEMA
pIC50: −log10 of the molar value.
MEASUREMENT_KIND: pIC50

CHEM_SMILES: CC(C)(C)Cc1[nH]nc2c1[C@](C)(c1ccccc1)C1=C(CC(C)(C)CC1=O)N2
RESULT: < 5.00

----------
target: GSK3α (Homo sapiens, UniProt P49840); test: biochemical
Sequence (P49840 whole entry): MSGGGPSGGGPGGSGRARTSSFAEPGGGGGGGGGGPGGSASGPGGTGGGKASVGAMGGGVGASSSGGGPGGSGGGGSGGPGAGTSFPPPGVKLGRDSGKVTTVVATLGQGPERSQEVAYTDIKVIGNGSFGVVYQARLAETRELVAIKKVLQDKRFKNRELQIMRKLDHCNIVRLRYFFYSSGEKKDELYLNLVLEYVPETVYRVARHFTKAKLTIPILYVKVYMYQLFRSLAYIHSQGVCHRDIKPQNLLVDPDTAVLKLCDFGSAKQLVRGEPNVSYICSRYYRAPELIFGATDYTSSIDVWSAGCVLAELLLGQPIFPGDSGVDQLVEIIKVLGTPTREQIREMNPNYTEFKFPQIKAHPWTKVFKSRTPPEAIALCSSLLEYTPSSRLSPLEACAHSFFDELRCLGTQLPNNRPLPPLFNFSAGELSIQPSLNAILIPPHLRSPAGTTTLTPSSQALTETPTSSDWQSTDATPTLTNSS
Rule: IC50 below 200 nM gives Criterion met. Equal to or above 200 nM gives Criterion not met.

COMPOUND: CCC1(c2cccc(C(C)(C)C)c2)C2=C(CC(C)(C)CC2=O)Nc2n[nH]cc21 (racemic)
ASSIGNED_CLASS: Criterion met

COMPOUND: CC1(C)CC(=O)C2=C(C1)Nc1n[nH]cc1C2(C)c1cccc(C(F)(F)F)c1 (racemic)
ASSIGNED_CLASS: Criterion met

COMPOUND: CC[C@@]1(c2cc(F)cc(F)c2)C2=C(CC(C)(C)CC2=O)Nc2n[nH]cc21 (stereo in doubt)
ASSIGNED_CLASS: Criterion not met

COMPOUND: COc1ccccc1[C@@H]1C2=C(CC(C)(C)CC2=O)Nc2n[nH]c(C3CC(F)(F)C3)c21 (stereo in doubt)
ASSIGNED_CLASS: Criterion met

COMPOUND: COc1ccccc1[C@H]1C2=C(CC(C)(C)CC2=O)Nc2n[nH]c(C(C)C)c21
ASSIGNED_CLASS: Criterion not met

----------
biological target: GSK3β (Homo sapiens, UniProt P49841)
Sequence (P49841 whole entry): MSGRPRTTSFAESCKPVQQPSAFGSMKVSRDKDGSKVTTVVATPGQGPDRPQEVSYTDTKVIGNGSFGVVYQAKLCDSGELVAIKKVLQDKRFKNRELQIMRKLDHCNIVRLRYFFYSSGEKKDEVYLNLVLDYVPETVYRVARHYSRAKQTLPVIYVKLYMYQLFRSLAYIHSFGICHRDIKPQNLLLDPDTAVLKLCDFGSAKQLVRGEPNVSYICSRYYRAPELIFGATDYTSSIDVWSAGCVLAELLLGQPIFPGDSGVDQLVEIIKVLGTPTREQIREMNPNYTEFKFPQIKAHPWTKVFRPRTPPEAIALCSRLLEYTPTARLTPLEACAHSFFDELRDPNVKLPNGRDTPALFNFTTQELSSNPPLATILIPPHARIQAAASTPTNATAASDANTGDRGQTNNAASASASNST
# GSK3β fold selectivity listing for each entry below

COMPOUND: CC1(C)CC(=O)C2=C(C1)Nc1n[nH]c(C3CC(F)(F)C3)c1[C@]21CCc2ccccc21
TESTED_TARGET: GSK3β (Homo sapiens, UniProt P49841)
RESULT_UNITS: fold
GSK3β fold selectivity: 8.4

COMPOUND: CC1(C)CC(=O)C2=C(C1)Nc1n[nH]c(C3CC(F)(F)C3)c1[C@]21COc2ccccc21
TESTED_TARGET: GSK3β (Homo sapiens, UniProt P49841)
RESULT_UNITS: fold
GSK3β fold selectivity: 16.1

COMPOUND: CC1(C)CC(=O)C2=C(C1)Nc1n[nH]c(C3CC(F)(F)C3)c1[C@@]21CCOc2ccccc21
TESTED_TARGET: GSK3β (Homo sapiens, UniProt P49841)
RESULT_UNITS: fold
GSK3β fold selectivity: 9.1

COMPOUND: CC1(C)CC(=O)C2=C(C1)Nc1n[nH]c(C3CC(F)(F)C3)c1C21CCc2ccccc21 (racemic)
TESTED_TARGET: GSK3β (Homo sapiens, UniProt P49841)
RESULT_UNITS: fold
GSK3β fold selectivity: 10.3

COMPOUND: CC1(C)CC(=O)C2=C(C1)Nc1n[nH]c(C3CC(F)(F)C3)c1C21CCc2cc(F)ccc21 (racemic)
TESTED_TARGET: GSK3β (Homo sapiens, UniProt P49841)
RESULT_UNITS: fold
GSK3β fold selectivity: 7.2

COMPOUND: CC1(C)CC(=O)C2=C(C1)Nc1n[nH]c(C3CC(F)(F)C3)c1C21CCCc2ccccc21 (stereo not drawn)
TESTED_TARGET: GSK3β (Homo sapiens, UniProt P49841)
RESULT_UNITS: fold
GSK3β fold selectivity: 9.0

COMPOUND: CC1(C)CC(=O)C2=C(C1)Nc1n[nH]c(C3CC(F)(F)C3)c1C21CCc2c(F)cccc21 (racemic)
TESTED_TARGET: GSK3β (Homo sapiens, UniProt P49841)
RESULT_UNITS: fold
GSK3β fold selectivity: 7.6

COMPOUND: CC1(C)CC(=O)C2=C(C1)Nc1n[nH]c(C3CC3)c1C2(C)c1cccc(C#N)c1 (racemic)
TESTED_TARGET: GSK3β (Homo sapiens, UniProt P49841)
RESULT_UNITS: fold
GSK3β fold selectivity: 1.1

COMPOUND: CC1(C)CC(=O)C2=C(C1)Nc1n[nH]c(C3CC(F)(F)C3)c1[C@]21CCc2cc(F)ccc21
TESTED_TARGET: GSK3β (Homo sapiens, UniProt P49841)
RESULT_UNITS: fold
GSK3β fold selectivity: 9.0

COMPOUND: CC1(C)CC(=O)C2=C(C1)Nc1n[nH]c(C3CC(F)(F)C3)c1[C@]21CCOc2ccccc21
TESTED_TARGET: GSK3β (Homo sapiens, UniProt P49841)
RESULT_UNITS: fold
GSK3β fold selectivity: 7.8

COMPOUND: CC1(C)CC(=O)C2=C(C1)Nc1n[nH]c(C3CC(F)(F)C3)c1[C@@]21CCc2cc(F)ccc21
TESTED_TARGET: GSK3β (Homo sapiens, UniProt P49841)
RESULT_UNITS: fold
GSK3β fold selectivity: 8.8

COMPOUND: CC1(C)CC(=O)C2=C(C1)Nc1n[nH]c(C3CC(F)(F)C3)c1[C@@]21CCc2c(F)cccc21
TESTED_TARGET: GSK3β (Homo sapiens, UniProt P49841)
RESULT_UNITS: fold
GSK3β fold selectivity: 4.4

COMPOUND: CC1(C)CC(=O)C2=C(C1)Nc1n[nH]c(C3CC(F)(F)C3)c1[C@@]21CCc2ccccc21
TESTED_TARGET: GSK3β (Homo sapiens, UniProt P49841)
RESULT_UNITS: fold
GSK3β fold selectivity: 4.4

COMPOUND: CC1(C)CC(=O)C2=C(C1)Nc1n[nH]c(C3CC(F)(F)C3)c1[C@@]21COc2ccccc21
TESTED_TARGET: GSK3β (Homo sapiens, UniProt P49841)
RESULT_UNITS: fold
GSK3β fold selectivity: 6.5

COMPOUND: CC1(C)CC(=O)C2=C(C1)Nc1n[nH]c(C3CC(F)(F)C3)c1C21CCOc2ccccc21 (racemic)
TESTED_TARGET: GSK3β (Homo sapiens, UniProt P49841)
RESULT_UNITS: fold
GSK3β fold selectivity: 11.1

----------
target: CDK2/CycA2 (Homo sapiens); conditions: read-out: IC50 CDK2/CycA2

CHEM_SMILES: CC[C@@]1(c2ccccc2)C2=C(CC(C)(C)CC2=O)Nc2n[nH]cc21
RESULT_UNITS: µM
IC50: 6.87

----------
# log10(IC50) listing for each entry below
biological target: GSK3β (Homo sapiens, UniProt P49841); assay: biochemical
MEASUREMENT_KIND: log10(IC50) (log10 of the value in µM)

COMPOUND: CC(C)(C)Cc1[nH]nc2c1C1(CCc3cc(F)ccc31)C1=C(CC(C)(C)CC1=O)N2 (racemic)
log10(IC50): -1.20
--
COMPOUND: CC(C)Cc1[nH]nc2c1[C@@](C)(c1ccccc1)C1=C(CC(C)(C)CC1=O)N2 (stereo in doubt)
log10(IC50): 0.61
--
COMPOUND: CC1(C)CC(=O)C2=C(C1)Nc1n[nH]c(C3CC(F)(F)C3)c1C21CCc2cc(F)ccc21 (racemic)
log10(IC50): -0.69
--
COMPOUND: CC(C)(C)Cc1[nH]nc2c1[C@](C)(c1ccccc1)C1=C(CC(C)(C)CC1=O)N2 (stereo in doubt)
log10(IC50): -1.82
--
COMPOUND: CC1(C)CC(=O)C2=C(C1)Nc1n[nH]cc1[C@@]2(C)c1cccc(C#N)c1 (stereo in doubt)
log10(IC50): 0.95
--
COMPOUND: CCC1(c2ccccc2)C2=C(CC(C)(C)CC2=O)Nc2n[nH]cc21 (racemic)
log10(IC50): -0.23

----------
# IC50 listing for each entry below
molecular target: GSK3α (Homo sapiens, UniProt P49840); test: biochemical
MEASUREMENT_KIND: IC50 (µM)

MOLECULE: CC(C)(C)Cc1[nH]nc2c1C(C)(c1ccccc1)C1=C(CC(C)(C)CC1=O)N2 (racemic)
MEASUREMENT_KIND: IC50
NUMERIC_RESULT: 0.237
--
MOLECULE: CC1(C)CC(=O)C2=C(C1)Nc1n[nH]c(C3CC(F)(F)C3)c1C21CCc2cc(F)ccc21 (racemic)
MEASUREMENT_KIND: IC50
NUMERIC_RESULT: 1.49
--
MOLECULE: CC1(C)CC(=O)C2=C(C1)Nc1n[nH]c(C3CC(F)(F)C3)c1[C@@]21CCc2ccccc21
MEASUREMENT_KIND: IC50
NUMERIC_RESULT: 0.087
--
MOLECULE: CC[C@@]1(c2ccccc2)C2=C(CC(C)(C)CC2=O)Nc2n[nH]c(C3CC3)c21 (stereo in doubt)
MEASUREMENT_KIND: IC50
NUMERIC_RESULT: 0.028
